# log10 of IC50 listing for each entry below
# target desc: Steryl-sulfatase (Homo sapiens)
# Sequence (P08842 whole entry): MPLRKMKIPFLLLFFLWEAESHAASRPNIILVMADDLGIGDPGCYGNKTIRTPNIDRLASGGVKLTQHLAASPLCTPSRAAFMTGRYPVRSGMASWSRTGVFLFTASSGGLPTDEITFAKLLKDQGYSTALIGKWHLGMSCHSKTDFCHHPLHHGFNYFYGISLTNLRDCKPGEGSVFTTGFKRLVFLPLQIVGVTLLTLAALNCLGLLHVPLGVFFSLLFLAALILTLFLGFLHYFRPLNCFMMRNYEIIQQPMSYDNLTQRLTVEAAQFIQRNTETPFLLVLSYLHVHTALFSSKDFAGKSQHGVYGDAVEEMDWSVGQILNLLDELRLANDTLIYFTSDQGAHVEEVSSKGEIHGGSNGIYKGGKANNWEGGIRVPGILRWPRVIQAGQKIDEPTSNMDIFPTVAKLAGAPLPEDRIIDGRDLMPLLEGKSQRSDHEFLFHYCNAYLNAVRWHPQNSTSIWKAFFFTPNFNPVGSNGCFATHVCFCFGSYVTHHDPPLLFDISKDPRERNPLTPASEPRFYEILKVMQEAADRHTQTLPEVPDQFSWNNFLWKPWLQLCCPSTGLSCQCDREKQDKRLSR
# assay: Inhibitory concentration against human steroid sulfatase
In plain terms, each number is the log10 of measured IC50 in nM.

Task: Read the entry CC(C)(C)OC(=O)N1CCC(C(=O)NS(=O)(=O)c2cc(C(F)(F)F)cc(C(F)(F)F)c2)CC1 and write its reported log10 of IC50.
Result: 2.32

Task: Read the entry O=C(Cc1ccccc1)O[C@H]1C[C@H]2CC[C@@H](C1)N2C(=O)NS(=O)(=O)c1ccc(Cl)cc1 and write its reported log10 of IC50.
Result: 2.96

Task: Read the entry CC(C)(C)OC(=O)N1CCC(C(=O)NS(=O)(=O)c2c(Cl)sc(Cl)c2Br)CC1 and write its reported log10 of IC50.
Result: 1.41

Task: Read the entry CC(C)(C)OC(=O)N1CCC(C(=O)NS(=O)(=O)c2ccc(Cl)cc2)CC1 and write its reported log10 of IC50.
Result: 3.93

Task: Read the entry CC(C)(C)OC(=O)N1CCN(C(=O)NS(=O)(=O)c2ccc(Cl)cc2)CC1 and write its reported log10 of IC50.
Result: 3.56
